target: p62 ZZ domain (aa 120-171) (human, UniProt Q13501 120-171)
pKd: −log10 of the molar value.
measuredEndpoint: pKd

1: REEE [REEE peptide]
2: RAEE [RAEE peptide]
Problem: Given the entries 1 and 2 , determine which has the lower reported pKd. Please identify the chosen entry by its label.
2
